Just for reference, patent US20240294541A1 is where these values come from.

- Tested on: PFSK-1 (malignant primitive neuroectodermal tumour)
- procedure-details: In vitro cytotoxicity, SRB assay, PFSK-1
- Type: cell-based
- run-parameters: Homo sapiens, PFSK-1; 72 h with compound, SRB; n/a = non-active compound; read-out: PFSK-1 IC50
Please go through the items and note down their log10 IC50.
Quick note: numbers are log10 of IC50, with µM as the unit.

"CCCCNC(=S)N[C@@H]1C=C[C@]2(O[C@H]([C@@H](CC)C(=O)[C@@H](C)[C@@H](O)[C@H](C)[C@@H]3O[C@@H]([C@@H](CC)C(=O)O)CC[C@@H]3C)[C@@H](C)C[C@H]2C)O[C@@]12CC[C@@](C)([C@H]1CC[C@](O)(CC)[C@H](C)O1)O2" yielded log10 IC50 of -1.73

"CC[C@@H](C(=O)[C@@H](C)[C@@H](O)[C@H](C)[C@@H]1O[C@@H]([C@@H](CC)C(=O)O)CC[C@@H]1C)[C@H]1O[C@]2(C=C[C@@H](NC(=O)Nc3ccc(OC)cc3)[C@]3(CC[C@@](C)([C@H]4CC[C@](O)(CC)[C@H](C)O4)O3)O2)[C@H](C)C[C@@H]1C" yielded log10 IC50 of -2.29

"CC[C@@H](C(=O)[C@@H](C)[C@@H](O)[C@H](C)[C@@H]1O[C@@H]([C@@H](CC)C(=O)O)CC[C@@H]1C)[C@H]1O[C@]2(C=C[C@@H](NC(=O)NC3CCC3)[C@]3(CC[C@@](C)([C@H]4CC[C@](O)(CC)[C@H](C)O4)O3)O2)[C@H](C)C[C@@H]1C" yielded log10 IC50 of -1.29

"CC[C@@H](C(=O)[C@@H](C)[C@@H](O)[C@H](C)[C@@H]1O[C@@H]([C@@H](CC)C(=O)O)CC[C@@H]1C)[C@H]1O[C@]2(C=C[C@@H](NC(=S)NC3CCCCC3)[C@]3(CC[C@@](C)([C@H]4CC[C@](O)(CC)[C@H](C)O4)O3)O2)[C@H](C)C[C@@H]1C" yielded log10 IC50 of -2.11

"CCCCCCCCNC(=O)N[C@@H]1C=C[C@]2(O[C@H]([C@@H](CC)C(=O)[C@@H](C)[C@@H](O)[C@H](C)[C@@H]3O[C@@H]([C@@H](CC)C(=O)O)CC[C@@H]3C)[C@@H](C)C[C@H]2C)O[C@@]12CC[C@@](C)([C@H]1CC[C@](O)(CC)[C@H](C)O1)O2" yielded log10 IC50 of -2.34

"CC[C@@H](C(=O)[C@@H](C)[C@@H](O)[C@H](C)[C@@H]1O[C@@H]([C@@H](CC)C(=O)O)CC[C@@H]1C)[C@H]1O[C@]2(C=C[C@@H](NC(=S)NCCCSC)[C@]3(CC[C@@](C)([C@H]4CC[C@](O)(CC)[C@H](C)O4)O3)O2)[C@H](C)C[C@@H]1C" yielded log10 IC50 of -1.91

"CC[C@@H](C(=O)[C@@H](C)[C@@H](O)[C@H](C)[C@@H]1O[C@@H]([C@@H](CC)C(=O)O)CC[C@@H]1C)[C@H]1O[C@]2(C=C[C@@H](NC(=O)NC3CCCCC3)[C@]3(CC[C@@](C)([C@H]4CC[C@](O)(CC)[C@H](C)O4)O3)O2)[C@H](C)C[C@@H]1C" yielded log10 IC50 of -2.00

"CC[C@@H](C(=O)[C@@H](C)[C@@H](O)[C@H](C)[C@@H]1O[C@@H]([C@@H](CC)C(=O)O)CC[C@@H]1C)[C@H]1O[C@]2(C=C[C@@H](NC(=S)Nc3cc(C(F)(F)F)cc(C(F)(F)F)c3)[C@]3(CC[C@@](C)([C@H]4CC[C@](O)(CC)[C@H](C)O4)O3)O2)[C@H](C)C[C@@H]1C" yielded log10 IC50 of -0.42

"C=CCNC(=O)N[C@@H]1C=C[C@]2(O[C@H]([C@@H](CC)C(=O)[C@@H](C)[C@@H](O)[C@H](C)[C@@H]3O[C@@H]([C@@H](CC)C(=O)O)CC[C@@H]3C)[C@@H](C)C[C@H]2C)O[C@@]12CC[C@@](C)([C@H]1CC[C@](O)(CC)[C@H](C)O1)O2" yielded log10 IC50 of -1.87

"CC[C@@H](C(=O)[C@@H](C)[C@@H](O)[C@H](C)[C@@H]1O[C@@H]([C@@H](CC)C(=O)O)CC[C@@H]1C)[C@H]1O[C@]2(C=C[C@@H](NC(=O)NCc3ccccc3)[C@]3(CC[C@@](C)([C@H]4CC[C@](O)(CC)[C@H](C)O4)O3)O2)[C@H](C)C[C@@H]1C" yielded log10 IC50 of -1.71

"CC[C@@H](C(=O)[C@@H](C)[C@@H](O)[C@H](C)[C@@H]1O[C@@H]([C@@H](CC)C(=O)O)CC[C@@H]1C)[C@H]1O[C@]2(C=C[C@@H](NC(=O)NC(=O)C(Cl)(Cl)Cl)[C@]3(CC[C@@](C)([C@H]4CC[C@](O)(CC)[C@H](C)O4)O3)O2)[C@H](C)C[C@@H]1C" yielded log10 IC50 of -0.16

"CC[C@@H](C(=O)[C@@H](C)[C@@H](O)[C@H](C)[C@@H]1O[C@@H]([C@@H](CC)C(=O)O)CC[C@@H]1C)[C@H]1O[C@]2(C=C[C@@H](NC(=S)Nc3ccc(C)cc3)[C@]3(CC[C@@](C)([C@H]4CC[C@](O)(CC)[C@H](C)O4)O3)O2)[C@H](C)C[C@@H]1C" yielded log10 IC50 of -2.43

"CC[C@@H](C(=O)[C@@H](C)[C@@H](O)[C@H](C)[C@@H]1O[C@@H]([C@@H](CC)C(=O)O)CC[C@@H]1C)[C@H]1O[C@]2(C=C[C@@H](NC(=O)Nc3ccccc3C(F)(F)F)[C@]3(CC[C@@](C)([C@H]4CC[C@](O)(CC)[C@H](C)O4)O3)O2)[C@H](C)C[C@@H]1C" yielded log10 IC50 of -1.30
